# Tested on: FAB9
# PROCEDURE SUMMARY: qHTS profiling for inhibitors of Plasmodium falciparum proliferation (AID 504749); also: nearly all actives have a fitted effect of over 60% in size
# EXPERIMENTAL SETUP: P. falciparum in erythrocytes, SYBR Green DNA, 72 h; series mostly up to 28.7 µM
# Experimental: NIH National Institute of Allergy and Infectious Diseases [NIAID] NIH Chemical Genomics Center [NCGC] […] Because mature erythrocytes lack DNA, only Plasmodium-derived DNA is detected. NCGC Assay Protocol Summary: The SYBR Green viability assay was adapted from a method described previously (Plouffe et al., 2008). […] The following morning, fluorescence intensity at 485(14) nm excitation and 535(25) nm emission wavelengths was measured on an EnVision (Perkin Elmer) plate reader. […]
Records with an inconclusive call do not appear. The source made the active and inactive calls. Calls follow the shape of the dose curve; as a rule, active = well fitted inhibition curve with a large enough effect; inconclusive = small, poorly fitted or top-dose-only effect; inactive = flat fitted curve, though single readings scatter.
Your reply should match one of these outcome classes. active, inactive

Field: outcome | Entry: CCC(C(=O)O)C1CCC(C)C(C(C)C(O)C(C)C(=O)C(CC)C2OC3(C=CC(O)[C@@]4(CC[C@](C)(C5CC[C@@](O)(CC)C(C)O5)O4)O3)C(C)CC2C)O1 (some centres undefined) active

Which outcome was assigned to COc1cccc2c1C(=O)c1c(O)c3c(c(O)c1C2=O)C[C@@](O)(C(=O)CO)C[C@@H]3O[C@H]1C[C@H](N)[C@H](OC2CCCCO2)[C@H](C)O1 (some centres undefined) in this test? active

Which outcome was assigned to `COc1ccc([C@@H]2CNC(=O)C2)cc1OC1CCCC1` in this test? inactive

Given COc1ccc2c(c1OC)C(=O)OC2[C@H]1c2c(cc3c(c2OC)OCO3)CCN1C (some centres undefined) , state the outcome it received in this test. inactive
